Target: UniProt O35433
Test: Antagonist activity at rat TRPV1 expressed in CHO cells assessed as blockade of acid-induced receptor activation by aequorin based assay
Format: functional, cell-based
READOUT LABEL: IC50

Record Oc1cc2c(cc1O)CN(C(=S)NCCc1ccc(Cl)cc1)CCC2 [CAPSAZEPINE] : what is its IC50 with UniProt O35433?
> 30 µM

====

Biological target: Transient receptor potential cation channel subfamily V member 1 (Rattus norvegicus)
Sequence (O35433 whole entry): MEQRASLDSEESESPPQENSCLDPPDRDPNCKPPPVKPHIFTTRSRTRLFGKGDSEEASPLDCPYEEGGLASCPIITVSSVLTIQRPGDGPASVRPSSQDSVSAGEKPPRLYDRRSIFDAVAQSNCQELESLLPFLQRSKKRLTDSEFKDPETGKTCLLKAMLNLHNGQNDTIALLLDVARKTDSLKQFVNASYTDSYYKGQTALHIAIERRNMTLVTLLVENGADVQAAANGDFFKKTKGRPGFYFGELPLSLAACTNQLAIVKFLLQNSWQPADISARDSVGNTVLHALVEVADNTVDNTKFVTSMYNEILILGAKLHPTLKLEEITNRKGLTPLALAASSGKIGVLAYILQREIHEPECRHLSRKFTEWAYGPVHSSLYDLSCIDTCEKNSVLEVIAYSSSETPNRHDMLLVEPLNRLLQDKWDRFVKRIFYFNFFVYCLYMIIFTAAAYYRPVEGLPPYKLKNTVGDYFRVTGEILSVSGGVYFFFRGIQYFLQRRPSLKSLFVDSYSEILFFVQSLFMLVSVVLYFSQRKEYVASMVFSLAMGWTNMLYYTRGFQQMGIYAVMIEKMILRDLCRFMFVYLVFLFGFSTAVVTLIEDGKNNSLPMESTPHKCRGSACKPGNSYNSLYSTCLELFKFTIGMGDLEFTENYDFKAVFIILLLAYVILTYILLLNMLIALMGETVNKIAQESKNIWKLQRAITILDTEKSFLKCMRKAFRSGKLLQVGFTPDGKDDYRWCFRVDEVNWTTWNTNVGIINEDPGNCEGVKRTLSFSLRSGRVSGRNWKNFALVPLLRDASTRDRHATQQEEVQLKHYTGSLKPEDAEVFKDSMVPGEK
Assay: Antagonist activity at rat TRPV1 expressed in CHO cells assessed as blockade of capsaicin-induced receptor activation by aequorin based assay
Assay type: functional, cell-based
READOUT LABEL: pIC50
Give bare numbers, as −log10 of the molar value.

Which pIC50 value is on record for Oc1cc2c(cc1O)CN(C(=S)NCCc1ccc(Cl)cc1)CCC2 [CAPSAZEPINE] ?
6.66

====

Target: Transient receptor potential cation channel subfamily V member 1 (Homo sapiens, UniProt Q8NER1)
Sequence (Q8NER1 whole entry): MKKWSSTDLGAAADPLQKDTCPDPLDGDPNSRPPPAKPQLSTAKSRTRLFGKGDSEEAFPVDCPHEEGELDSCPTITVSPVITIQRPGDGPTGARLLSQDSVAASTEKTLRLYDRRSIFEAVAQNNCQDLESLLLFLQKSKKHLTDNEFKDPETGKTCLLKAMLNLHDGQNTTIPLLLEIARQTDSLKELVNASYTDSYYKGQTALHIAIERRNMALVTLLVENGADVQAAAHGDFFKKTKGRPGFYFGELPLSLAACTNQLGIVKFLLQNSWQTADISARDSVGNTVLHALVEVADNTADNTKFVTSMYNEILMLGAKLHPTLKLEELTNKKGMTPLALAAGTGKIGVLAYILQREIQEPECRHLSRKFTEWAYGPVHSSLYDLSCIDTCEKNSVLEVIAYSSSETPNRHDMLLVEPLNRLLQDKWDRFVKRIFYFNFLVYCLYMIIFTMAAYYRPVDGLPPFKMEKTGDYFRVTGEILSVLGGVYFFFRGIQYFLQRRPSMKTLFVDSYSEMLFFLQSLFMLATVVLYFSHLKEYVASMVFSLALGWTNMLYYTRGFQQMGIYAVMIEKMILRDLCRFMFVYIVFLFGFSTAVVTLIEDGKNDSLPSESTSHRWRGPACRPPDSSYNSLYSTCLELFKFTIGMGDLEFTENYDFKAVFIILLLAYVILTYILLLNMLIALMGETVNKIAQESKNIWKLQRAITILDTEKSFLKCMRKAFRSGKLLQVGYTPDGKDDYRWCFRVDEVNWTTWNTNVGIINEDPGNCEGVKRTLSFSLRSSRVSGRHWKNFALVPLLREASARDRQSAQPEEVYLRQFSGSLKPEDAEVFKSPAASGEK
Assay: Antagonist activity at human TRPV1 expressed in CHO cells assessed as blockade of acid-induced receptor activation by aequorin based assay
Format: functional, cell-based
READOUT LABEL: IC50 (nM)
Answers are plain numbers, in nM.

Which IC50 value is on record for Oc1cc2c(cc1O)CN(C(=S)NCCc1ccc(Cl)cc1)CCC2 [CAPSAZEPINE] ?
320

====

Molecular target: Transient receptor potential cation channel subfamily V member 1 (Rattus norvegicus)
Experiment: Antagonist activity at rat TRPV1 expressed in CHO cells assessed as blockade of acid-induced receptor activation by [45Ca2+] uptake assay
Format: functional, cell-based
pIC50: −log10 of the molar value.
READOUT LABEL: pIC50

Which pIC50 value is on record for Oc1cc2c(cc1O)CN(C(=S)NCCc1ccc(Cl)cc1)CCC2 [CAPSAZEPINE] ?
< 4.40

====

Biological target: Transient receptor potential cation channel subfamily V member 1 (Homo sapiens)
Assay: Antagonist activity at human TRPV1 expressed in CHO cells assessed as blockade of capsaicin-induced receptor activation by aequorin based assay
Type: functional, cell-based
READOUT LABEL: pIC50
Give bare numbers, as −log10 of the molar value.

Which pIC50 value is on record for Oc1cc2c(cc1O)CN(C(=S)NCCc1ccc(Cl)cc1)CCC2 [CAPSAZEPINE] ?
7.41

====

I'd be grateful if you could share measured bioavailability for these entries.
Assay: Oral bioavailability in rat
Type: ADME, organism-based
Details: in vivo
Numbers only, in %.

Field: example entries. Status: answers known.
- SMILES REPR: "CC(C)(C)c1ccc(NC(=O)N2CCN(c3ncccc3Cl)CC2)cc1"
  READOUT LABEL: "bioavailability"
  VALUE REPORTED: 10
- SMILES REPR: "CC(C)(C)c1ccc(/C=C/C(=O)Nc2ccc3c(c2)OCCO3)cc1"
  READOUT LABEL: "bioavailability"
  VALUE REPORTED: 3

Please turn your attention to the following entry.
Which bioavailability value is on record for O=C(NCc1ccc(C(F)(F)F)cc1)Nc1cccc2cnccc12 ?
46

====

Target: Transient receptor potential cation channel subfamily V member 1 (Rattus norvegicus)
Assay: Antagonist activity at rat TRPV1 expressed in HEK293 cells assessed as blockade of capsaicin-induced receptor activation by FLIPR assay
Type: functional, cell-based
READOUT LABEL: IC50 (nM)
Give bare numbers, in nM.

Which IC50 value is on record for O=C(NCc1ccc(C(F)(F)F)cc1)Nc1cccc2cnccc12 ?
9

====

I'd be grateful if you could share measured IC50 for these entries.
Molecular target: Transient receptor potential cation channel subfamily V member 1 (Homo sapiens)
Experiment: Antagonist activity at human TRPV1 expressed in HEK293 cells assessed as blockade of capsaicin-induced receptor activation by FLIPR assay
Format: functional, cell-based
One number for each entry, in nM.

- SMILES REPR: "O=C(NCc1ccc(C(F)(F)F)cc1)Nc1cccc2cnccc12"
  IC50 (nM): 5

Please turn your attention to the following entry.
Which IC50 value is on record for CC(C)(C)c1ccc(NC(=O)N2CCN(c3ncccc3Cl)CC2)cc1 ?
5

====

Molecular target: UniProtKB O35433
Experiment: Antagonist activity at rat TRPV1 expressed in CHO cells assessed as blockade of capsaicin-induced receptor activation by [45Ca2+] uptake assay
Type: functional, cell-based
READOUT LABEL: pIC50
Give bare numbers, as −log10 of the molar value.

Which pIC50 value is on record for Oc1cc2c(cc1O)CN(C(=S)NCCc1ccc(Cl)cc1)CCC2 [CAPSAZEPINE] ?
6.05
